Exercise: for every item that follows, state its recorded pKi.
pKi: −log10 of the molar value.

Value (pKi, HIV-1 protease (Human immunodeficiency virus type 1 group M subtype B, UniProt P04585)) for record CC(C)CN(C[C@@H](O)[C@H](Cc1ccccc1)NC(=O)O[C@H]1CO[C@H]2O[C@@H]3OCC[C@@H]3[C@H]21)S(=O)(=O)c1ccc(N)cc1 = > 10.00

Value (pKi, HIV-1 protease (Human immunodeficiency virus type 1 group M subtype B, UniProt P04585)) for record COc1ccc(S(=O)(=O)N(CC(C)C)C[C@@H](O)[C@H](Cc2ccccc2)NC(=O)O[C@H]2CO[C@H]3C[C@@H]4OCC[C@@H]4[C@H]32)cc1 = > 8.00

Value (pKi, HIV-1 protease (Human immunodeficiency virus type 1 group M subtype B, UniProt P04585)) for record COc1ccc(S(=O)(=O)N(CC(C)C)C[C@@H](O)[C@H](Cc2ccccc2)NC(=O)OC2CS(=O)(=O)CC3OC4OCCC4C23)cc1 (stereo partly drawn) = > 9.00
